- protocol summary: Cytotoxicity assay (MTS/PMS)
- Type: cell-based
- measurement setup: monkey; 24 h treatment, MTS/PMS, average of three biological replicates; read-out: CC50 against Vero cells
- Description: The potential cytotoxic eff ect of the test compounds was investigated using Vero cells (monkey kidney epitheli al cells) following est ablished protocols.3 Briefly, Vero cells were plated into 96-well plates supplemented with Dulbecco's Modified Eagle Medium (DMEM) containing 10% fetal bovine serum (FBS). […] A microplate reader (S ynergy H1, BioTek, USA) was used to m easure absorbance at 490 nm. […]
measure: CC50 at 24 h (µg/mL)
Reply numerically in µg/mL, unit not repeated.

| given smiles | CC50 at 24 h [µg/mL] |
| --- | --- |
| COC(=O)[C@H]1O[C@@H](n2ccc(NC(=O)c3ccc(N)cc3)nc2=O)C=C[C@@H]1NC(=O)C[C@@H](N)CCN(C)C(=N)N | 126 |

// CN(CC[C@H](N)CC(=O)N[C@H]1C=C[C@H](n2ccc(N)nc2=O)O[C@@H]1C(=O)O)C(=N)N : CC50 at 24 h value = 18
